# Test system: NOMO1
# Assay Name: cell viability relative to DMSO control; higher = less cytotoxic
# Test Conditions: HPLM + 10% dialyzed FBS; 48 h; 0.0632 µM
# cell viability annotations
Write down the numeric answer in % and omit the unit.

Known results for compounds:
[
  {
    "Compound": "CN[S+](=O)([O-])CCc1ccc2[nH]cc(C3CCN(C)CC3)c2c1",
    "Units Text": "%",
    "cell viability": 112
  },
  {
    "Compound": "O=C(CCCCCCC(=O)Nc1ccccc1)NO",
    "Units Text": "%",
    "cell viability": 113
  }
]

QUERY: Given the entry C[S+]([O-])c1ccc(-c2nc(-c3ccc(F)cc3)c(-c3ccncc3)[nH]2)cc1 (centres undefined) , report its measured cell viability.
RESULT: 106

QUERY: Tell me the measured cell viability of `CC[C@@]1(O)C[C@H](O[C@H]2C[C@H](N(C)C)[C@H](O[C@H]3C[C@H](O)[C@H](O[C@H]4CCC(=O)[C@H](C)O4)[C@H](C)O3)[C@H](C)O2)c2c(cc3c(c2O)C(=O)c2c(O)cccc2C3=O)[C@H]1C(=O)OC` , please.
RESULT: 122

* * *

# Tested on: NOMO1
# Assay Name: cell viability relative to DMSO control; higher = less cytotoxic
# Test Conditions: RPMI 5 mM glucose + 10% dialyzed FBS; 48 h; 0.569 µM
Measured cell viability of individual entries
Please respond with the number in % and leave the unit unwritten.

Illustrative cases are given below, each with its answer.
[
  {
    "Molecule": "NC(=O)c1cccc(N)c1",
    "Parameter Measured": "cell viability",
    "Recorded Number": 116
  },
  {
    "Molecule": "CCN(CC)CCN1C(=O)\\C(=N/C2=CC=CC=C12)CC3=CC=C(OC)C=C3",
    "Parameter Measured": "cell viability",
    "Recorded Number": 119
  },
  {
    "Molecule": "CC(=O)O[C@@]12CO[C@@H]1C[C@H](O)[C@]3(C)[C@@H]2[C@H](OC(=O)C4=CC=CC=C4)[C@]5(O)C[C@H](OC(=O)C(O)[C@@H](NC(=O)OC(C)(C)C)C6=CC=CC=C6)C(=C(/[C@@H](O)C3=O)C5(C)C)/C (some centres undefined)",
    "Parameter Measured": "cell viability",
    "Recorded Number": 27.3
  },
  {
    "Molecule": "Nc1nc(OCc2ccccc2)c2nc[nH]c2n1",
    "Parameter Measured": "cell viability",
    "Recorded Number": 122
  },
  {
    "Molecule": "COc1cccc2c1C(=O)c1c(O)c3c(c(O)c1C2=O)C[C@@](O)(C(C)=O)C[C@@H]3O[C@H]1C[C@H](N)[C@H](O)[C@H](C)O1",
    "Parameter Measured": "cell viability",
    "Recorded Number": 9.73
  }
]

QUERY: Give the measured cell viability of `OC(COC1=C2C(=O)\C=C(/OC2=CC=C1)C([O-])=O)COC3=C4C(=O)\C=C(/OC4=CC=C3)C([O-])=O` .
RESULT: 89.1

QUERY: Record request: cell viability value, item `Cc1ccc(C(=O)c2cc(O)c(O)c([N+](=O)[O-])c2)cc1`
RESULT: 108

QUERY: Find the recorded cell viability belonging to CC(C)NCC(O)c1ccc(NS(C)(=O)=O)cc1 (centres undefined) and report it.
RESULT: 102

QUERY: Quick one: cell viability for COC1=CC=C(C=C1)C2CC(=N/N2C3=CC=C(C=C3)[S+](N)([O-])=O)\C4=CC=CC=C4 (centres undefined) ?
RESULT: 93.3

* * *

Each entry below carries its recorded cell viability.
# System: SEM cells
# Assay Name: cell viability relative to DMSO control; higher = less cytotoxic
# Test Conditions: RPMI 5 mM glucose + 10% dialyzed FBS; 48 h; 15.4 µM
Hi! Could you send only the number? It should be in %, unit omitted.

[
  {
    "Molecule": "O=C1CCc2ccc(OCCCCN3CCN(c4cccc(Cl)c4Cl)CC3)cc2N1",
    "Units Text": "%",
    "cell viability": 117
  },
  {
    "Molecule": "CCN(C)C(=O)Oc1cccc([C@H](C)N(C)C)c1",
    "Units Text": "%",
    "cell viability": 110
  },
  {
    "Molecule": "CC(C)NCC(O)c1ccc(NS(C)(=O)=O)cc1 (stereo not given)",
    "Units Text": "%",
    "cell viability": 109
  },
  {
    "Molecule": "NCC(=O)Nc1ccc(-n2nc(C(F)(F)F)cc2-c2ccc3c(ccc4ccccc43)c2)cc1",
    "Units Text": "%",
    "cell viability": 51.4
  }
]

Please turn your attention to the following entry.
QUERY: Request the reported cell viability associated with `CN(C)c1ccc(Nc2nc(N)n(C(=O)c3c(F)cccc3F)n2)cc1`
RESULT: 40.5

* * *

# System: NOMO1
# Assay Name: cell viability relative to DMSO control; higher = less cytotoxic
# Test Conditions: RPMI 5 mM glucose + 10% FBS; 48 h; 0.00234 µM
Parameter Measured: cell viability (%)
Provide only the numeric value, understood in %.

QUERY: Record request: cell viability value, item `COC1=CC2=C(C=C1OC)[C@H]3[C@@H](CO2)OC4=C(C=CC5=C4\C=C/C(C)(C)O5)C3=O`
RESULT: 95.3

QUERY: # lookup: cell viability of `COc1cc(OC)c(NC(=O)Nc2cc(C)on2)cc1Cl`
RESULT: 96.7

QUERY: Quick one: cell viability for `CCN1C[C@]2(OC(=O)c3ccccc3NC(C)=O)CC[C@H](OC)[C@@]34[C@@H]2C[C@@H]([C@@H]13)[C@@]1(O)C[C@H](OC)[C@H]2C[C@@H]4[C@]1(O)[C@H]2OC` ?
RESULT: 99.4

QUERY: Return reported cell viability; argument: `Cc1cc(Cl)ccc1OCCCC(=O)NO`
RESULT: 112

QUERY: Look up cell viability for this compound: `CNCC(O)C(O)C(O)C(O)CO.O=C(O)c1ccc(-c2cc3cccnc3c(-c3ccc4nonc4c3)n2)cc1`
RESULT: 119

* * *

# System: SEM cells
# Assay Name: cell viability relative to DMSO control; higher = less cytotoxic
# Test Conditions: HPLM + 10% dialyzed FBS; 48 h; 1.71 µM
Parameter Measured: cell viability (%)
Reply with just the number (in %).

[
  {
    "Smiles Record": "Cc1c(C(=O)Nc2cccc(C(F)(F)F)c2)cc(-c2ccccc2)n1CCCN1CCOCC1",
    "Units Text": "%",
    "cell viability": 99.5
  },
  {
    "Smiles Record": "COc1cc2ncnc(Nc3cccc(Br)c3)c2cc1OC",
    "Units Text": "%",
    "cell viability": 118
  },
  {
    "Smiles Record": "C[C@@H](N)c1ccc(C(=O)Nc2ccnc3[nH]ccc23)cc1",
    "Units Text": "%",
    "cell viability": 118
  },
  {
    "Smiles Record": "Cc1ncc([N+](=O)[O-])n1CCO",
    "Units Text": "%",
    "cell viability": 111
  },
  {
    "Smiles Record": "CCN(CC)CCN1C(=O)\\C(=N/C2=CC=CC=C12)CC3=CC=C(OC)C=C3",
    "Units Text": "%",
    "cell viability": 83.6
  },
  {
    "Smiles Record": "CN[C@@H]1C[C@H]2O[C@@](C)([C@@H]1OC)n1c3ccccc3c3c4c(c5c6ccccc6n2c5c31)C(=O)N[C@H]4O",
    "Units Text": "%",
    "cell viability": 16.5
  }
]

QUERY: Suppose we examine the molecule `CC(C)c1ccccc1Cc1cc(C(=O)Nc2ccc([S+](=O)([O-])c3ccccc3C(C)(C)C)cc2)c(O)c(O)c1O` ; what cell viability value has been reported?
RESULT: 115

QUERY: Data request, read-out cell viability, for `CN(C)C[C@@H]1CC[N]2C=C(C3=C2C=CC=C3)C/4=C(/C(=O)NC4=O)C5=C[N](CCO1)C6=C5C=CC=C6`
RESULT: 81.4

* * *

# Tested on: SEM cells
# Assay Name: cell viability relative to DMSO control; higher = less cytotoxic
# Test Conditions: RPMI 5 mM glucose + 10% dialyzed FBS; 48 h; 0.19 µM
Parameter Measured: cell viability (%)
// note: answer is a bare numeric in %

[
  {
    "Compound": "CCCCCCCCCCCCCCCCCCOP(=O)([O-])OC1CC[N+](C)(C)CC1",
    "Study System": "SEM cells",
    "Units Text": "%",
    "Recorded Number": 94.9
  },
  {
    "Compound": "C#Cc1cccc(Nc2ncnc3cc(OC)c(OCCCCCCC(=O)NO)cc23)c1",
    "Study System": "SEM cells",
    "Units Text": "%",
    "Recorded Number": 59.2
  },
  {
    "Compound": "CN(C)c1ccc(Nc2nc(N)n(C(=O)c3c(F)cccc3F)n2)cc1",
    "Study System": "SEM cells",
    "Units Text": "%",
    "Recorded Number": 127
  }
]

QUERY: Quick one: cell viability of `CCOC1=CC(=CC=C1C/2=N/[C@@](C)(C3=CC=C(Cl)C=C3)[C@](C)(N2C(=O)N4CCN(CC4)CC(=O)N5CCOCC5)C6=CC=C(Cl)C=C6)C(C)(C)C` ?
RESULT: 109

QUERY: Item under review: `CN[S+](=O)([O-])CCc1ccc2[nH]cc(C3CCN(C)CC3)c2c1` . Reported cell viability?
RESULT: 99.4

QUERY: Consider the compound `CCCCN(CCCC)C(=O)CN1C[C@H](c2ccc3c(c2)OCO3)[C@@H](C(=O)O)[C@@H]1c1ccc(OC)cc1` and give its measured cell viability.
RESULT: 127

QUERY: Consider the compound shown here: C[S+]([O-])c1ccc(-c2nc(-c3ccc(F)cc3)c(-c3ccncc3)[nH]2)cc1 (centres undefined) What is its recorded cell viability?
RESULT: 77

QUERY: // returns reported cell viability for input `COc1cc(N[S+](=O)([O-])c2ccc(N)cc2)nc(OC)n1`
RESULT: 101

QUERY: cell viability lookup needed for `CCCCCCCCc1ccc(CCC(N)(CO)CO)cc1` , thanks.
RESULT: 110

QUERY: Tell me the measured cell viability of `OC1=CC=C(C=C1)\C2=C\C(=O)C3=C(O2)C=C(O)C=C3O` , please.
RESULT: 108

QUERY: For the compound `NC(=O)Nc1cc(-c2ccc(CN3CCOCC3)cc2)sc1C(N)=O` , what cell viability is on record?
RESULT: 22.9

QUERY: Given CC(C)NCC(O)c1ccc(NS(C)(=O)=O)cc1 (centres undefined) , state its recorded cell viability.
RESULT: 105

QUERY: Requested field: cell viability. Item: `CN(C)c1ccc2cc(C(=O)N[C@@H](CCCNC(=N)CCl)C(=O)NCc3ccccc3)ccc2c1`
RESULT: 108

QUERY: # cell viability lookup, item `CC1(C)CC(O)CC(C)(C)N1[O]`
RESULT: 95.4

QUERY: Any idea what cell viability was measured for COc1ccnc(C[S+]([O-])c2nc3cc(OC(F)F)ccc3[nH]2)c1OC (centres undefined) ?
RESULT: 118

QUERY: Field request: cell viability | item: `CCN(C)C(=O)Oc1cccc([C@H](C)N(C)C)c1`
RESULT: 109

QUERY: I would be grateful if you could share the reported cell viability for CC1=C(CC/C(C)=C/CCC2=CCC(C3=CC(=O)OC3O)OC2O)C(C)(C)CCC1 (centres undefined) .
RESULT: 132

QUERY: Given `Cc1cn(CCN2CCN(c3ccccc3-c3cc(C#N)cc(C(=O)NCCCN4CCCC4)c3)CC2)c2ccccc12` , state its recorded cell viability.
RESULT: 119

QUERY: Need cell viability, item `Cc1ccc(C(=O)c2cc(O)c(O)c([N+](=O)[O-])c2)cc1`
RESULT: 94
